I'd be grateful if you could share measured Ratio/Fc-H for these entries.
Molecular target: T1, FcRn-p3 fusion protein (human, UniProt P55899 24-297; P61769 21-119)
T1 construct: baculovirus expressed; coated on ELISA wells; not shown: amino terminal part of bacteriophage p3 protein and CVDE protein
T1 sequence (P55899 24-297, chain 1 of 2): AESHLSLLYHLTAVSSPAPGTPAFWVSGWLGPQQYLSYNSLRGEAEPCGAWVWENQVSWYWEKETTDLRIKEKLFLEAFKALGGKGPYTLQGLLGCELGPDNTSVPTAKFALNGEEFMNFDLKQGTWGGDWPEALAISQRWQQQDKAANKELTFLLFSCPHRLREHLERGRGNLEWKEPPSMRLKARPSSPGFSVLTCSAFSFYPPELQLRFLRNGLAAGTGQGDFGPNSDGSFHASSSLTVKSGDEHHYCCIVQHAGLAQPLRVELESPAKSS
T1 sequence (P61769 21-119, chain 2 of 2): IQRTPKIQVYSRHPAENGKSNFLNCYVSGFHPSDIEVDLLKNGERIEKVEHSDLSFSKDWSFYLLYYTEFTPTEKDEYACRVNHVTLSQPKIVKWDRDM
Assay: phage ELISA pH6
Answers are plain numbers, in fold.

Sample records with Ratio/Fc-H:
1) T5A_74C (other, EU numbering) CPLCPAPELLGGPSVFLFPPKPKDTLMISRTPEVTCVVVDVSHEDPEVKFNWYVDGVEVHNAKTKPREEQYNSTYRVVSVLTVLHQDWLDGKEYKCKVSNKALPVPIEKTISKAKGQPREPQVYTLPPSRDELTKDQVSLTCLVKGFYPSDIVVEWESNGQPENNYKTTPPVLDSDGSFFLYSKLTVDKSRWQQGNVFSCSVMHEALHYHYTQKSLSLSPGK
7.5
2) C6A_78C (other, EU numbering) CPPCSAPELLGGPSVFLFPPKPKDTLMISRNPEVTCVVVDVSHEDPEVKFNWYVDGVEVHNAKTKPREEQYNSTYRVVSVLTVLHQDWLNGKEYKCKVSNKALPAPIEKTISKAKGQPREPQVYTLPPSRDELTKNQVSLTCLVKGFYPSDIVVEWESNGQPENNYKTTPPVLDSDGSFFLYSKLTVDKSRWQQGNVFSCSVMHEALHYHYTQKSLSLSPGK
9.2

Request: Please supply the value of reported Ratio/Fc-H for the item C6A_12 (other, EU numbering) CPPCTAPELLGGPSVFLFPPKPKDTLMISRTPEVTCVVVDVSHEDPEVKFNWYVDGVEVHNAKTKPREEQYNSTYRVVSVLTVLHQDWLDGKEYKCKVSNKALPAPIEKTISKAKGQPREPQVYTLPPSRDELTKNEVSLTCLVKGFYPSDIAVEWESNGQPENNYKTTPPVLDSDGSFFLYSKLTVDKSRWQQGNVFSCSVMHEALHYHYTQKSLSLSPGK
Response: 4.6

All values here come from patent USRE46585.
